# experimentDescription: Cytotoxicity against CHO cells assessed as cell viability after 48 hrs by MTT colorimetric assay
# Assay type: cell-based, Cricetulus griseus
# setupConditions: chinese hamster
recordedMetric: GI50 at 48 h (µg/mL)

{"compound": "CC[C@@]12CCCN3CC[C@]4(c5cccc(O)c5N(C(C)=O)[C@@H]4CC1)[C@H]32", "recordedMetric": "GI50 at 48 h", "unit": "µg/mL", "experimentalValue": 16.7}
{"compound": "C[C@@H]1[C@H](O)[C@@H](C)/C=C/C=C/C=C/C=C/C=C/C=C/C=C/[C@H](O[C@@H]2O[C@H](C)[C@@H](O)[C@H](N)[C@@H]2O)C[C@@H]2O[C@](O)(C[C@@H](O)C[C@@H](O)[C@H](O)CC[C@@H](O)C[C@@H](O)CC(=O)O[C@H]1C)C[C@H](O)[C@H]2C(=O)O [AMPHOTERICIN B]", "recordedMetric": "GI50 at 48 h", "unit": "µg/mL", "experimentalValue": 10.3}
{"compound": "CC1CS(=O)(=O)CCN1/N=C/c1ccc([N+](=O)[O-])o1 (stereo not drawn) [NIFURTIMOX]", "recordedMetric": "GI50 at 48 h", "unit": "µg/mL", "experimentalValue": 13.9}
